The reported measurements were obtained from PubChem BioAssay AID2060908.

Catalogue of IC50 values
- System: 186277-243-T-J2-PDC complex spheroids, viability
- test-name: Anticancer human tumor 186277-243-T-J2-PDC patient-derived colon adenocarcinoma cell line growth inhibition [RAS]
- run-conditions: curve of first compound; second compound 0.316 µM
observed-property: IC50 (nM)

molecule="CC(Nc1ccc2c(c1)OCCn1cc(N3C(=O)OCC3C(F)F)nc1-2)C(N)=O (stereo not given) + C=CC(=O)N1CCN(c2nc(OCC3CCCN3C)nc3c(F)c(-c4nc(N)cc(C)c4C(F)(F)F)c(Cl)cc23)C(C)C1" readout_qualifier== numeric_value=453
molecule="Nc1ccn(C2OC(CO)C(O)C2(F)F)c(=O)n1 (stereo not given) + C#Cc1c(F)ccc2cc(O)cc(-c3ncc4c(N5CC6CCC(C5)N6)nc(OCC56CCCN5CC(F)C6)nc4c3F)c12" readout_qualifier=< numeric_value=3.16
molecule="CC1(O)CCCC1n1c(=O)c(C(F)F)cc2cnc(NC3CCN(S(C)(=O)=O)CC3)nc21 (stereo not given) + C=CC(=O)N1CCN(c2nc(OCC3CCCN3C)nc3c(F)c(-c4nc(N)cc(C)c4C(F)(F)F)c(Cl)cc23)C(C)C1" readout_qualifier== numeric_value=4830
molecule="CC(C)n1nc(-c2ccc3oc(N)nc3c2)c2c(N)ncnc21 + C=CC(=O)N1CCN(c2nc(OCC3CCCN3C)nc3c(F)c(-c4nc(N)cc(C)c4C(F)(F)F)c(Cl)cc23)C(C)C1" readout_qualifier== numeric_value=95.1
molecule="CCc1c2c(nc3ccc(O)cc13)-c1cc3c(c(=O)n1C2)COC(=O)[C@]3(O)CC + C#Cc1c(F)ccc2cc(O)cc(-c3ncc4c(N5CC6CCC(C5)N6)nc(OCC56CCCN5CC(F)C6)nc4c3F)c12" readout_qualifier=< numeric_value=0.949

----------
- Tested on: 186277-243-T-J2-PDC complex spheroids, viability
- test-name: Anticancer human tumor 186277-243-T-J2-PDC cell line growth inhibition [RAS];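 further: spheroids exposed to compounds for 7 days before viability read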
- run-conditions: second compound 0.03 µM; first compound 1 µM; stronger effect = lower value
- Text: RAS pathway inhibitors in Combinations in Complex Spheroids A high-throughput screen of multi-cell type tumor spheroids was designed to identify active combinations of RAS pathway inhibitors and targeted small molecules. Complex spheroids include a stromal component modeled by human endothelial cells (HUVEC) and fibroblasts modeled by human mesenchymal stem cells (MSCs). […] Compounds. […] If the clinical Cmax for an agent had not been determined, the highest concentration tested was 10 microM. […]
observed-property: viability, T/C (%)

compound="C=CC(=O)N1CCN(c2nc(OCC3CCCN3C)nc3c(F)c(-c4nc(N)cc(C)c4C(F)(F)F)c(Cl)cc23)C(C)C1 (configuration not stated) + CCn1c(-c2cc(N3CCN(C)CC3)cnc2C(C)OC)c2c3cc(ccc31)-c1csc(n1)CC(NC(=O)C1CC1C)C(=O)N1CCCC(N1)C(=O)OCC(C)(C)C2" numeric_value=13.9
compound="CC(C)NCC(C(=O)N1CCN(c2ncnc3c2C(C)CC3O)CC1)c1ccc(Cl)cc1 (configuration not stated) + CCn1c(-c2cccnc2C(C)OC)c2c3cc(ccc31)N1CCOC(CC(NC(=O)C(C(C)C)N(C)C(=O)C3(F)CCN(C(=O)C#CC(C)(C)N(C)C)CC3)C(=O)N3CCCC(N3)C(=O)OCC(C)(C)C2)C1" numeric_value=57.3
compound="CC(Nc1ccc2c(c1)OCCn1cc(N3C(=O)OCC3C(F)F)nc1-2)C(N)=O (configuration not stated) + CCn1c(-c2cccnc2C(C)OC)c2c3cc(ccc31)N1CCOC(CC(NC(=O)C(C(C)C)N(C)C(=O)C3(F)CCN(C(=O)C#CC(C)(C)N(C)C)CC3)C(=O)N3CCCC(N3)C(=O)OCC(C)(C)C2)C1" numeric_value=48
compound="C=CC(=O)Nc1cc(Nc2nccc(-c3cn(C)c4ccccc34)n2)c(OC)cc1N(C)CCN(C)C + CCn1c(-c2cc(N3CCN(C)CC3)cnc2C(C)OC)c2c3cc(ccc31)-c1csc(n1)CC(NC(=O)C1CC1C)C(=O)N1CCCC(N1)C(=O)OCC(C)(C)C2" numeric_value=4.11
compound="C=CC(=O)Nc1cc(Nc2nccc(-c3cn(C)c4ccccc34)n2)c(OC)cc1N(C)CCN(C)C + CCn1c(-c2cccnc2C(C)OC)c2c3cc(ccc31)N1CCOC(CC(NC(=O)C(C(C)C)N(C)C(=O)C3(F)CCN(C(=O)C#CC(C)(C)N(C)C)CC3)C(=O)N3CCCC(N3)C(=O)OCC(C)(C)C2)C1" numeric_value=82.2
compound="Nc1ccn(C2OC(CO)C(O)C2(F)F)c(=O)n1 (configuration not stated) + CCn1c(-c2cccnc2C(C)OC)c2c3cc(ccc31)N1CCOC(CC(NC(=O)C(C(C)C)N(C)C(=O)C3(F)CCN(C(=O)C#CC(C)(C)N(C)C)CC3)C(=O)N3CCCC(N3)C(=O)OCC(C)(C)C2)C1" numeric_value=8.3
compound="C=CC(=O)N1CCN(c2nc(OCC3CCCN3C)nc3c(F)c(-c4nc(N)cc(C)c4C(F)(F)F)c(Cl)cc23)C(C)C1 (configuration not stated) + CCn1c(-c2cccnc2C(C)OC)c2c3cc(ccc31)N1CCOC(CC(NC(=O)C(C(C)C)N(C)C(=O)C3(F)CCN(C(=O)C#CC(C)(C)N(C)C)CC3)C(=O)N3CCCC(N3)C(=O)OCC(C)(C)C2)C1" numeric_value=91.7
